Measured values drawn from patent US7208517B1 for this set.

# experimental-details: pH-solubility profile: maximum solubility in aqueous media at varying pH
# Format: physicochemical
# condition-parameters: aqueous buffer, pH 7.6, about 25° C.
quantity: solubility (µg/mL)
Numeric only. Scale: µg/mL

Can you share its solubility? I mean this compound: CCCCN(C(=O)CN1CC(c2ccc3c(c2)OCO3)C(C(=O)O)C1c1ccc(OC)cc1)c1cccnc1 (stereo not shown)
3550

---

For each of the molecules below, state its pIC50.
# system: ETA receptor in MMQ cells (rET-A) (Rattus norvegicus, UniProt P26684)
# Construct: endogenous in cells; host or cells: MMQ rat pituitary cells (membranes)
# Sequence (P26684 21-426): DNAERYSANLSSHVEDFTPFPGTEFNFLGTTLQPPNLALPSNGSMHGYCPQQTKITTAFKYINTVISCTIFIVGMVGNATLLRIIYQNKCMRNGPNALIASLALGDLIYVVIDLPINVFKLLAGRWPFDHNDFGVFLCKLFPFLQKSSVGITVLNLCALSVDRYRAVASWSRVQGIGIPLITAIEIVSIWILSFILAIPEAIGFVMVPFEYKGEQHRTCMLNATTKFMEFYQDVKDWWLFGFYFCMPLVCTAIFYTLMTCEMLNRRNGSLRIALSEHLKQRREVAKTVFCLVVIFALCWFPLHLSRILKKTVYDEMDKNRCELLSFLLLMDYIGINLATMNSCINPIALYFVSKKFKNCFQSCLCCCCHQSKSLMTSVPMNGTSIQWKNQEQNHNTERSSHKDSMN
# experimental-details: ETA/ETB selectivity: (125I)ET-1 competition binding, ETA assay in MMQ cell membranes (rET-A)
# condition-parameters: MMQ cell membranes; 0.1 nM (125I)ET-1; read-out: rET-A IC50
# Description: The mixture was centrifuged at 1000×g for 10 min. The supernatant was collected and centrifuged at 60,000×g for 60 min. The precipitate was resuspended in 20 mM Tris, pH 7.4 containing protease inhibitor and centrifuged again. […] Protein content was determined by the Bio-Rad dye-binding protein assay. Binding assays were performed in 96-well microtiter plates pretreated with 0.1% BSA. […] Nonspecific binding was determined in the presence of 1 μM ET-1. […]
Entry type: numeric. Quantity: pIC50, the -log10 of concentration in molar units.

Item CCCCN(CCCC)C(=O)CN1CC(c2ccc3c(c2)OCO3)C(C(=O)O)C1CC(C)(C)C1OCCO1 (centres unmarked) [compound 507] with ETA receptor in MMQ cells (rET-A) (Rattus norvegicus, UniProt P26684) - pIC50?
8.52

Item CCCCN(CCCC)C(=O)CN1CC(c2ccc3c(c2)OCO3)C(C(=O)O)C1CCC1CCCCO1 (centres unmarked) [compound 505] with ETA receptor in MMQ cells (rET-A) (Rattus norvegicus, UniProt P26684) - pIC50?
8.70

Item CC=CC(C)(C)CC1C(C(=O)O)C(c2cc(OC)c3c(c2)OCO3)CN1CC(=O)N(CCCC)CCCC (centres unmarked) [Example 553] with ETA receptor in MMQ cells (rET-A) (Rattus norvegicus, UniProt P26684) - pIC50?
9.59

Item CCCCN(CCCN(C)C)C(=O)CN1CC(c2ccc3c(c2)OCO3)C(C(=O)O)C1c1ccc(OC)cc1 (centres unmarked) [compound 527] with ETA receptor in MMQ cells (rET-A) (Rattus norvegicus, UniProt P26684) - pIC50?
8.10

Item CCCCN(CCCC)C(=O)CN1CC(c2cc(OC)c3c(c2)OCO3)C(C(=O)O)C1CC(C)(C)CCC (centres unmarked) [compound 514] with ETA receptor in MMQ cells (rET-A) (Rattus norvegicus, UniProt P26684) - pIC50?
9.00

Item CCCCN(CCCC)C(=O)CN1CC(c2ccc3c(c2)OCO3)C(C(=O)O)C1COc1ccccc1OC (centres unmarked) [compound 510] with ETA receptor in MMQ cells (rET-A) (Rattus norvegicus, UniProt P26684) - pIC50?
9.30

Item CCCCN(CCCC)C(=O)CN1C[C@H](c2ccc3c(c2)OCO3)[C@@H](C(=O)O)[C@@H]1CC(C)(C)CCC [compound 537] with ETA receptor in MMQ cells (rET-A) (Rattus norvegicus, UniProt P26684) - pIC50?
9.02

Item CCCCN(CCC[N+](C)(C)C)C(=O)CN1CC(c2ccc3c(c2)OCO3)C(C(=O)O)C1c1ccc(OC)cc1 (centres unmarked) [compound 528] with ETA receptor in MMQ cells (rET-A) (Rattus norvegicus, UniProt P26684) - pIC50?
7.96

Item CCCC(CCC)N(C(=O)CN1C[C@H](c2ccc3c(c2)OCO3)[C@@H](C(=O)O)[C@@H]1CCN1CCCC1=O)c1ccc(F)c(C)c1 [compound 521] with ETA receptor in MMQ cells (rET-A) (Rattus norvegicus, UniProt P26684) - pIC50?
9.17

Item CCCC(CCC)N(C(=O)CN1C[C@H](c2ccc3c(c2)OCO3)[C@@H](C(=O)O)[C@@H]1CC(C)(C)CCC)c1ccc(F)c(C)c1 [compound 511] with ETA receptor in MMQ cells (rET-A) (Rattus norvegicus, UniProt P26684) - pIC50?
9.09

Item CCCCN(C(=O)CN1CC(c2ccc3c(c2)OCO3)C(C(=O)O)C1c1ccc(OC)cc1)c1cccc(CN)c1 (centres unmarked) [compound 532] with ETA receptor in MMQ cells (rET-A) (Rattus norvegicus, UniProt P26684) - pIC50?
8.29

Item CCCCN(CCCC)C(=O)CN1C[C@H](c2ccc3c(c2)OCO3)[C@@H](C(=O)O)[C@@H]1CCN1CCCC1=O [compound 520] with ETA receptor in MMQ cells (rET-A) (Rattus norvegicus, UniProt P26684) - pIC50?
9.70

Item CCCCN(CCCC)C(=O)CN1CC(c2ccc3c(c2)OCO3)C(C(=O)O)C1CC(C)(C)CCC (centres unmarked) [compound 503] with ETA receptor in MMQ cells (rET-A) (Rattus norvegicus, UniProt P26684) - pIC50?
8.85

Item CCCCN(CCCC)C(=O)CN1CC(c2cc(OC)c3c(c2)OCO3)C(C(=O)O)C1CCC1OCCO1 (centres unmarked) [compound 509] with ETA receptor in MMQ cells (rET-A) (Rattus norvegicus, UniProt P26684) - pIC50?
9.25

Item CCCCN(CCCC)C(=O)CN1C[C@H](c2ccc3c(c2)CCO3)[C@@H](C(=O)O)[C@@H]1CC(C)(C)CCC [compound 515] with ETA receptor in MMQ cells (rET-A) (Rattus norvegicus, UniProt P26684) - pIC50?
8.80

Item CCCON(CCC)C(=O)CN1CC(c2ccc3c(c2)OCO3)C(C(=O)O)C1c1ccc(OC)cc1 (centres unmarked) [compound 524] with ETA receptor in MMQ cells (rET-A) (Rattus norvegicus, UniProt P26684) - pIC50?
9.10

Item CCCCN(CCCC)C(=O)CN1CC(c2ccc3c(c2)OCO3)C(C(=O)O)C1CCc1ccccc1OC (centres unmarked) [compound 517] with ETA receptor in MMQ cells (rET-A) (Rattus norvegicus, UniProt P26684) - pIC50?
9.00

Item CCCCN(CCCC)C(=O)CN1CC(c2ccc3c(c2)OCO3)C(C(=O)O)C1CCC1OCCO1 (centres unmarked) [compound 504] with ETA receptor in MMQ cells (rET-A) (Rattus norvegicus, UniProt P26684) - pIC50?
8.51

Item CCCC(CCC)N(C(=O)CN1CC(c2cc(OC)c3c(c2)OCO3)C(C(=O)O)C1CCC1OCCO1)c1ccc(F)c(C)c1 (centres unmarked) [compound 513] with ETA receptor in MMQ cells (rET-A) (Rattus norvegicus, UniProt P26684) - pIC50?
9.52

Item CCCCN(CCCC)C(=O)CN1C[C@H](c2cc(OC)c3c(c2)OCO3)[C@@H](C(=O)O)[C@@H]1CC(C)(C)CCC [compound 536] with ETA receptor in MMQ cells (rET-A) (Rattus norvegicus, UniProt P26684) - pIC50?
9.28
